- TARGET_OR_SYSTEM: RSV F protein of subtype A strain A2, on virus (respiratory syncytial virus subtype A …, UniProt P03420 26-574)
- PROCEDURE_TEXT: cell-based or functional assay
For each record, write down the corresponding Neut IC50 (ug/ml) subtype A.

- BINDER: "ADI-15633 (antibody, V domains shown, IgG) VH: QVQLVQSGAEVKKPGESLKISCKGSGYTFRMYWIGWARLLPGKGLEWIGIIYPGDSDTRYNPSLQGQVTMSVDKSINTAYLQWGSLKASDSAIYYCARLRLHPQSGMDVWGQGTLVTVSS VL: NFMLTQPHSVSESPGKTVVISCTRSSGSIAGYYVQWYQHRPGSSPTTVIYEDDQRPSGVPDRFSGSVDSSSNSASLTISGLKTEDEADYYCQSYDNAIWVFGGGTKLTVL"
  Neut IC50 (ug/ml) subtype A: "12.8 µg/mL"
- BINDER: "ADI-15653 (antibody, V domains shown, IgG) VH: QVQLVQSGAEVKKPGSSVKVSCKSSGGTFSNYIISWVRQAPGQGLEWMGGIVPLSGTTDYAQKFQGRVTITADKSTTTAYMELRTLRPEDTAVYYCARGSGGSNAYFDPWGQGTLVTVSS VL: QSVVTQPPSVSVAPGKTAKITCGGNNIGSKSVYWYQQKPGQAPVLVMYYDTYRPSGIPERFSGSNSGNSATLTISRVDAGDEADYYCQVWDSRSDHPYVFGSGTKLTVL"
  Neut IC50 (ug/ml) subtype A: "> 10 µg/mL"

Kindly review the next binder as well.
Lookup: Fill in the blank: the reported Neut IC50 (ug/ml) subtype A of ADI-15590 (antibody, V domains shown) VH: EVQLLESGGLVVQPGGSLRLSCAASGFIFDDYTMHWVRQAPGKGLEWISLISWDSLDTYYAGSVQGRFTISRDNSRNSLYLRMNSLRPEDTALYYCAKTKYRGTYYYFDSWGQGTLVTVSS VL: DIRVTQSPSSLSASVGDRVTITCQASQDISNYLNWYQQKPGKAPKLLIYDASNLETGVPSRFSGRGSGTDFTFTISSLQPEDIATYYCQQYDNLPPVTFGPGTKVEIK is ____.
Found: > 10 µg/mL
